Data provenance is patent US20080009523A1.

Target: P2Y12 receptor (Homo sapiens)
Sequence (Q9H244 whole entry): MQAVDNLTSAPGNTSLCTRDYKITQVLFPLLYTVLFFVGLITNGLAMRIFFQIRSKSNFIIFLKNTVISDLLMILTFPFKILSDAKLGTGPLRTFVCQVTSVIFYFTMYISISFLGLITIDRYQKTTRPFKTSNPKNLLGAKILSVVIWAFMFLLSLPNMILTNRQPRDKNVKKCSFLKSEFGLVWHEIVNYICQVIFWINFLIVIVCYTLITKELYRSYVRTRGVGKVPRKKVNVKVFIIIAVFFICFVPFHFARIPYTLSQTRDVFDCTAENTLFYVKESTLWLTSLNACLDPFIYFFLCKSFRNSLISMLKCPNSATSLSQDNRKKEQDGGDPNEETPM
Assay: Functional inhibition of 2-Me-S-ADP induced P2Y12 signalling (35S-GTPγS, membranes from P2Y12 transfected CHO-cells)
Conditions: EC80 concentration of agonist 2-methyl-thio-adenosine diphosphate, 30° C., 45 min
recorded endpoint: IC50 (nM)

(A) CCOC(=O)c1cc(C#N)c(N2CCC(S(=O)(=O)NS(=O)(=O)Cc3ccccc3)CC2)nc1C
(B) CCOC(=O)c1cc(C#N)c(N2CCC(S(=O)(=O)NC(=O)Cc3ccc(F)cc3)CC2)nc1C
Between A and B , whose measured IC50 reads higher? Your choice should be expressed through its label.
A
(A: 640 nM, B: 300 nM)
